- Test system: NCI-H226 lung
- Test method notes: NCI tumour cell line growth inhibition, 48 h
Readout type: TGI (µM)

• O=C(CSc1nc2ccc(I)cc2c(=O)n1Cc1ccccc1)NN1C(=O)CCC1=O = 84.6
• COc1ccc2c(c1)nc1n2C(c2ccc(F)cc2)SC1 (centres undefined) = 54.1
• O=[N+]([O-])/C=C/c1cn(CCCCCn2cc(/C=C/[N+](=O)[O-])c3ccccc32)c2ccccc12 = 4.36
• Nc1ncc(/C=N/O)c(NCC2(CO)CC(CCc3ccccc3)C2)n1 (centres undefined) = 40.1

* * *

Measured GI50 of individual entries
- Tested on: SK-MEL-28 melanoma
- Test method notes: NCI tumour cell line growth inhibition, 48 h
Readout type: GI50

• COc1cc(-n2cc(-c3cc(O)c(C/C=C(\C)CCC=C(C)C)c(O)c3)nn2)cc2c1O[C@]1(C)CC[C@@H](O)C(C)(C)[C@H]1C2 = 0.754 µM
• COc1cc2cc(Oc3ccc(NC(=O)c4cccc5c4OCCO5)cc3)c(C)nc2cc1OC = 19.2 µM
• Cn1cnc([N+](=O)[O-])c1Sc1nc(N)nc2nc[nH]c12 = > 42.5 µM
• COc1ccc2cc(-c3c(-c4ccncc4)nc(-c4ccc(S(C)=O)cc4C)n3C)ccc2c1 (centres undefined) = > 25 µM
• C=CC1=CC(C)C[C@]1(O)C(=O)OC (some centres undefined) = > 100 µM
• Fc1c[c-]c(-c2ccccn2)c(F)c1.[CH3-].[Pt+2].c1ccc(P(C[PH+](c2ccccc2)c2ccccc2)c2ccccc2)cc1 = 0.512 µM
• CN(C)C(=O)SC1=C(c2c(Cl)cccc2Cl)C(=O)c2ccccc21 = 3.16 µM
• COc1ccc(-c2nc3c(c(=O)n2C(C)=O)C(c2ccc(Cl)cc2)c2sc4c(Cl)cccc4c2O3)cc1 (centres undefined) = 1.15 µM
• O=c1[nH]c2cc(Cl)c(Cl)cc2n2cc3ccccc3c12 = 33 µM

* * *

Catalogue of TGI values
- Tested on: NCI-H226 lung
- Test method notes: NCI tumour cell line growth inhibition, 48 h
Readout type: TGI

- C[N+](C)=c1nc(N2CCOCC2)ss1: > 100 µM
- O=C1CSc2nnc(CCCCCCCCc3nnc4n3NC(=O)CS4)n2N1: > 100 µM
- O=C(OCc1ccccc1C1CSCSC1)c1cc(C(=O)OCc2ccccc2C2CSCSC2)c(C(=O)OCc2ccccc2C2CSCSC2)cc1C(=O)OCc1ccccc1C1CSCSC1: > 100 µM
- Cc1ccc(S(=O)(=O)N/N=C2\C3CC4CC(C3)C2C4)cc1 (stereo not given): > 100 µM
- CC(=O)c1ccc(NC(=O)CSc2nc(C)nc3c2sc(=S)n3-c2ccccc2)cc1: > 3.16 µM

* * *

- System: HT29 colon
- Test method notes: NCI tumour cell line growth inhibition, 48 h; in the data active = GI50 below about 0.43 µM; inactive = the rest
Labels: TRUE for active, FALSE for inactive

• Nc1ncnc2c1c(-c1ccc(Oc3ccccc3)cc1)nn2C[C@@H]1SSC[C@@H]1O = TRUE
• CC(C)(CO)N=Cc1ccccc1[O-].CC(C)(CO)N=Cc1ccccc1[O-].[Co+2] = FALSE
• C=C(CNCCc1ccc(O)cc1)[C@@H]1CC[C@]2(CO)CC[C@]3(C)[C@H](CC[C@@H]4[C@@]5(C)CCC(N)C(C)(C)[C@@H]5CC[C@]43C)[C@@H]12 (some centres undefined) = FALSE
• NC(=O)c1cc(I)ccc1NC(=O)COc1ccccc1 = TRUE

* * *

Listing of recorded TGI by entry.
- Test system: MDA-MB-435
- Test method notes: NCI tumour cell line growth inhibition, 48 h
Readout type: TGI

* C=CCOC(=O)CCCCCCCCCCCCCCCOC(=O)C1=C(CCC[C@@H](C)O[Si](C)(C)C(C)(C)C)NC(=O)N2[C@H](CC3(CC/C=C\[C@H](CC)O[Si](C(C)C)(C(C)C)C(C)C)OCCO3)CC[C@H]12 | > 100 µM
* COc1cc([C@H]2c3[nH]c4ccccc4c3C[C@H]3COC(=O)N32)cc(OC)c1O | > 100 µM
* NC(=S)N/N=C\CC(O)(C(F)(F)F)C(F)(F)F | > 10 µM
* CO[P@]1(=O)O[C@@H](c2ccccc2)[C@H](O)[C@@]1(O)c1ccccc1 | > 100 µM

* * *

- Test system: HOP-62 NSCLC
- Test method notes: NCI tumour cell line growth inhibition, 48 h
The entries below come with measured TGI values attached.
Readout type: TGI

* COC1=CC(=O)C2=C(C1=O)[C@H]1CC[C@]3(C)[C@@H](OC(C)=O)CC[C@H]3[C@@H]1CC2 | > 100 µM
* COc1ccc2[nH]c(-c3ccccc3)cc2c1 | > 100 µM
* c1cnc2[nH]cc(-c3csc(-c4cn(CCCN5CCCCC5)c5ccccc45)n3)c2c1 | 3.02 µM
* COC(=O)c1ccc(/C=C2\CCc3ccccc3C2=O)cc1 | > 100 µM
* C/C(=N\n1c(N)c(C#N)c(-c2ccc(Cl)cc2)c(C#N)c1=O)c1ccncc1 | 48.8 µM
* COC(=O)C(C(=O)C(=O)NC1Nc2ccc(C)cc2S1)c1nc2ccc(Cl)cc2[nH]c1=O (stereo not given) | > 100 µM
* CCCCCCOc1ccc(C(=N)N(CCCC)CCCC)c2ccccc12 | 3.34 µM
* CC(C)(C)c1cc(CCC(=O)Nc2ccc(Cl)cc2Cl)nc(N)n1 | > 100 µM
* COc1ccc(-c2c3ccccc3c(-c3ccc(OCCCCCBr)cc3)c3ccccc23)cc1 | > 100 µM
* COC(=O)C1(F)C(=O)NC(=O)NC1OC (stereo not given) | > 100 µM

* * *

Listed compounds paired with reported TGI
- System: OVCAR-8 ovarian
- Test method notes: NCI tumour cell line growth inhibition, 48 h
Readout type: TGI (µM)

* CC1=C2C(=O)c3ccccc3C(=O)[C@H]2C[C@@H](N2CCCCCC2=O)O1 | 40.3
* CCCNC(=O)CCC(C)[C@H]1CCC2C3C(C[C@H](OC(C)=O)[C@@]21C)[C@@]1(C)CCC2(C[C@H]1C[C@H]3OC(C)=O)OOC1(CCCCC1)OO2 (stereo not given in full) | 4.3
* CC1(C)CC(=O)c2c(oc3cc(O)c(O)cc23)C1 | 55.6
* CC[C@@]1(O)C(=O)OCc2c1cc1n(c2=O)Cc2cc3c(N)cccc3nc2-1 | 2.51

* * *

compounds and their reported TGI
- System: SF-295 CNS
- Test method notes: NCI tumour cell line growth inhibition, 48 h
Readout type: TGI (µM)

* COC(=O)n1c(C[P+](c2ccccc2)(c2ccccc2)c2ccccc2)cc2ccccc21 | 5.9
* NS(=O)(=O)c1cc(S(N)(=O)=O)c(NC(=O)N(c2ccccc2)c2ccccc2)c(Cl)c1Cl | 95.9
* COc1ccc(NC(=O)c2sc3nc4c(cc3c2N)CCCC4)cc1 | 20.2
* CC(=O)[CH-]C(=O)c1ccccc1.CC(=O)[CH-]C(=O)c1ccccc1.[CH2-]CCC.[CH2-]CCC.[Sn+4] | 2.87

* * *

- Test system: HOP-92 NSCLC
- Test method notes: NCI tumour cell line growth inhibition, 48 h
Readout type: GI50

* CCCNC(=O)CCC(C)[C@H]1CCC2C3C(C[C@H](OC(C)=O)[C@@]21C)[C@@]1(C)CCC2(C[C@H]1C[C@H]3OC(C)=O)OOC1(CCCCC1)OO2 (some centres not stated) | 1.42 µM
* COc1cc(-n2cc(-c3cc(O)c(C/C=C(\C)CCC=C(C)C)c(O)c3)nn2)cc2c1O[C@]1(C)CC[C@@H](O)C(C)(C)[C@H]1C2 | 1.03 µM
* COc1ccc(-c2nc3c(c(=O)n2C(C)=O)C(c2ccc(Cl)cc2)c2sc4c(Cl)cccc4c2O3)cc1 (configuration not stated) | 1.33 µM
* COc1ccc(C(=O)C[C@]2(O)C(=O)Nc3c(Cl)ccc(Cl)c32)cc1 | 1.41 µM
* c1cnc2[nH]cc(-c3csc(-c4cn(CCCN5CCCCC5)c5ccccc45)n3)c2c1 | 1.36 µM
* CC1(C)C2CCC13C(=O)C1OC3(C2)C2C(=O)c3c(O)cccc3C(=O)C12 (configuration not stated) | 0.566 µM
* Cn1cnc([N+](=O)[O-])c1Sc1nc(N)nc2nc[nH]c12 | 3.1 µM

* * *

A collection of molecules and their measured TGI
- Tested on: OVCAR-8 ovarian
- Test method notes: NCI tumour cell line growth inhibition, 48 h
Readout type: TGI

• CN(C)C(=O)SC1=C(c2c(Cl)cccc2Cl)C(=O)c2ccccc21 = 17.1 µM
• CCOC(=O)c1nc2ccccc2nc1NCc1ccc(Cl)cc1Cl = > 100 µM
• CC(C)(C)[Si](C)(C)OCC1OC(n2cnc3c(N)ncnc32)C(O)C1O (stereo unspecified) = > 100 µM
• COC(=O)C(NC(=O)CSc1nnc(COc2ccc(Cl)cc2)n1-c1ccccc1)C(C)C (stereo unspecified) = 64.7 µM
• Nc1ncnc2c1c(-c1ccc(Oc3ccccc3)cc1)nn2C[C@@H]1SSC[C@@H]1O = 12.2 µM
• CC(=O)Nc1ccc(C(=O)N2N=C(C)/C(=C/c3ccc(O)cc3)C2=O)cc1 = > 100 µM
• CC(=O)OCCC(O[Si](c1ccccc1)(c1ccccc1)C(C)(C)C)C(C)(C)O (stereo unspecified) = > 100 µM
• COc1ccc2c(c1)nc1n2C(c2ccc(F)cc2)SC1 (stereo unspecified) = 43.2 µM
• COc1ccc(C(=O)C[C@]2(O)C(=O)Nc3c(Cl)ccc(Cl)c32)cc1 = > 77.3 µM
• COC(=O)C(C(=O)C(=O)NC1Nc2ccc(C)cc2S1)c1nc2ccc(Cl)cc2[nH]c1=O (stereo unspecified) = > 100 µM
• Cc1cc(S(=O)(=O)O)c(NC(=O)c2oc3cc(O)ccc3c(=O)c2C)cc1Cl = > 100 µM
• C=CC(=O)Nc1cccc(Nc2nc(Nc3ccc(OCCOC(F)F)cc3)ncc2F)c1 = 19.4 µM
• CC(C)(C)c1c(C(C)(C)C)c(=O)c1=O = > 100 µM
• CC(C)(C)CC(C)(C)c1ccc(OCCOCC[N+](C)(C)Cc2ccccc2)cc1 = 12.8 µM
• c1ccc([P+](c2ccccc2)(c2ccccc2)c2ccc([P+](c3ccccc3)(c3ccccc3)c3ccccc3)cc2)cc1 = > 100 µM
• C1=C2CNCC3=Cc4ccc5ccccc5c4OC23Oc2c1ccc1ccccc21 = 14.9 µM
• O=S1(=O)CCN(c2ccccc2CC(c2c[nH]c3ccccc23)c2c[nH]c3ccccc23)CC1 = 39.7 µM
• O=[N+]([O-])c1ccc(NS(=O)(=O)C(F)(F)F)cc1 = > 100 µM
• CC(=O)Oc1ccc(C2(c3ccc(OC(C)=O)cc3)C(=O)Nc3ccccc32)cc1 = > 100 µM
• COc1ccc(C2ONC3=NCCN32)cc1 (stereo unspecified) = > 100 µM
• COc1ccc(-c2nc(-c3cnccn3)n(C3OC(CO)C(O)C(O)C3O)n2)cc1 (stereo unspecified) = > 100 µM

Numbers sourced from PubChem BioAssay (NCI).
